Sourced from PubChem BioAssay (NCI)

Experiment: NCI Yeast Anticancer Drug Screen. Data for the mlh1 rad18 strain (AID 175)
Conditions: S. cerevisiae mlh1 rad18 strain growth inhibition; at 50.0 µM
The panel holds about 79,000 compounds, 15% with a hit somewhere; the sample as a whole holds those more often. The source made the active and inactive calls. No stated cut-off is given here; in the data, active means growth inhibition above about 70%; inactive means the rest.
Lab note: assign the record to one of 1 = active, 0 = inactive

INSERT INTO measurements (molecule, class_name) VALUES
  ('CC(=O)N/C(=C\c1ccc(Cc2nc3c([nH]2)C(=O)c2ccccc2C3=O)cc1)c1nc2c([nH]1)C(=O)c1ccccc1C2=O', 0),
  ('CN(C)CC1CCCC(CN(C)C)C1OC(=O)c1ccccc1 (stereo not drawn)', 0),
  ('CCCCn1cnc2c(SSc3ncnc4c3ncn4CCCC)ncnc21', 1),
  ('Cc1ccc(NC(=O)OCC(COc2ccc(Cl)cc2Cl)OC(=O)Nc2ccc(C)cc2)cc1 (stereo not drawn)', 0),
  ('CCCCCCCCCCCCCCCC(=O)NCNC(=O)CCCCCCCCCCCCCCC', 0);

// query Which outcome was entered for the molecule CCOC(=O)C(C(=O)OCC)C(C(=O)OCC)(C(=O)OCC)C(C(=O)OCC)C(=O)OCC in this test?
// result 0

// query Which outcome was entered for the molecule CCN(CC)CCOc1cccc(Oc2ccccc2)c1 in this test?
// result 1

// query Which outcome was entered for the molecule CC(=O)O[C@H]1C(=O)[C@]2(C)[C@@H](OC(=O)OCCC(O)CO)C[C@H]3OC[C@@]3(OC(C)=O)[C@H]2[C@H](OC(=O)c2ccccc2)[C@]2(O)C[C@H](OC(=O)[C@H](O)[C@@H](NC(=O)c3ccccc3)c3ccccc3)C(C)=C1C2(C)C (stereo partly drawn) in this test?
// result 0
